As shown below, each of these molecules has a reported GI50 value.
Test system: SK-MEL-5
Assay: Cytotoxicity against human SK-MEL-5 cells after 2 days by sulforhodamine B assay
Type: functional
Conditions: SK-MEL-5, 48 h
Give the number; nM is assumed, so skip it.

COc1cc(-c2ccc[nH]2)[nH]c1/C=C1\N=C(C)C(C(=O)CCC(=O)Oc2ccc3c(c2)CC[C@@H]2[C@@H]3CC[C@]3(C)C(=O)CC[C@@H]23)=C1C: 3500
CCC(=C(c1ccc(OCCN(C)C)cc1)c1ccc(OC(=O)CCCCC(=O)C2=C(C)/C(=C/c3[nH]c(-c4ccc[nH]4)cc3OC)N=C2C)cc1)c1ccccc1: 1620

Record CC/C(=C(/c1ccc(OCCN(C)C)cc1)c1ccc(OC(=O)CCC(=O)C2=C(C)/C(=C/c3[nH]c(-c4ccc[nH]4)cc3OC)N=C2C)cc1)c1ccccc1 , field GI50: 1530

Record CC/C(=C(/c1ccc(OCCN(C)C)cc1)c1ccc(OC(=O)CCCCCCCCC(=O)C2=C(C)/C(=C/c3[nH]c(-c4ccc[nH]4)cc3OC)N=C2C)cc1)c1ccccc1 , field GI50: 1620
